Test system: KIT
Conditions: concentration: 1 μM, replicates: in singlicate; n = 1;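 note: KINOMEscan kinase panel screen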
# label = yes if %Inh >= 9% else no

CN(C)c1cc(-c2ccc3c(N)n[nH]c3c2)nc(N)n1    no
COc1cc(Nc2nccc(N3CCC(NC(=O)C4COc5ccccc5O4)C3)n2)cc(OC)c1OC (stereo not drawn)    yes
OCCCNc1nccc(-c2c(-c3cccc(C(F)(F)F)c3)nn3cc(C(F)(F)F)ccc23)n1    no

Task: Has COC(=O)c1c(-c2ccccc2)c2cc(C)ccc2c(=O)n1Cc1ccccc1 a recorded %Inh greater than or equal to 9%?
Output: yes

Task: Check if %Inh >= 9% (inclusive). Item: O=C(NCc1cccs1)c1cc(C(=O)c2c(Cl)cccc2Cl)c[nH]1
Output: no

Task: Hello, I need to know if Cc1cccc(-c2cc(-c3c[nH]nc3-c3ccccn3)ccn2)c1 has measured %Inh not below 9%. Thanks!
Output: yes

Task: Check the entry COc1ccc(-c2cc3c(C)nc(N)nc3n([C@H]3CC[C@H](OCCO)CC3)c2=O)cn1 : does %Inh equal or exceed 9%?
Output: no

Task: Hello, I need to know if COC(=O)c1c(-c2ccccc2)c2cc(Br)ccc2c(=O)n1Cc1ccc(S(C)(=O)=O)cc1 has measured %Inh not below 9%. Thanks!
Output: yes

Task: Answer whether %Inh of Cc1nn2c(=O)cc(N3CCOCC3)nc2n1Cc1cccc(Cl)c1Cl is greater than or equal to 9%.
Output: yes

Task: Form field: %Inh at least 9%? Entry: Cc1nnc(-c2ccc3ncn(-c4ccc(S(C)=O)cc4)c3c2)o1 (stereo not drawn)
Output: yes

====

Consider the following compounds; for each one, report its %Inh.
System: YSK4
Construct: gene MAP3K19
Settings: concentration: 1 μM, replicates: in singlicate; n = 1
One number for each entry, in %.

COc1cc(OC)cc(-c2cc3cnc(N)nc3nc2NC(=O)NC(C)(C)C)c1    15
COc1ccc(Nc2nccc(N3CCC(NS(=O)(=O)c4ccc(NC(C)=O)cc4)C3)n2)cc1 (stereo not drawn) [GSK1379729]    1
Cl.c1ccc(Cn2cnc3cc(Nc4ncnc5ccccc45)ccc32)cc1 [GW272142]    29
COc1cc2nccc(Nc3ccc(OCc4ccc(NC(C)=O)cc4)cc3)c2cc1OC.Cl [GW440135]    0
COC(=O)c1c(-c2ccccc2)c2cc(C)ccc2c(=O)n1Cc1ccccc1    0
Cc1ccc(-c2ccc3c(ccc4sc5c(c43)NC[C@@H](C)N=C5N(C)C)n2)cn1    0
CCCNC(=O)Nc1ccc(Oc2ncnc3ccn(C)c23)cc1    33
COc1ccc(-c2cc3c(C)nc(N)nc3n([C@H]3CC[C@H](OCCO)CC3)c2=O)cn1    0

Give %Inh for each of the items listed below.
1. COc1cc2ncn(-c3cc(OCCCc4ccccc4)c(C(N)=O)s3)c2cc1OC [GSK205189]
2. CCC(=O)c1c(-c2ccccc2)c2cc(Cl)ccc2c(=O)n1Cc1cc(S(C)(=O)=O)n(CC(N)=O)n1
3. Cc1nc(N(C)[C@H]2CN(C(=O)CC#N)CC[C@H]2C)c2cc[nH]c2n1
4. C[C@@H]1CC[C@H](C(=O)NC2CCCCC2)CN1c1cc(-c2ccc3c(N)n[nH]c3c2)nc(N)n1 [GSK2291363]
5. CCC(=O)c1c(-c2ccccc2)c2cc(Cl)ccc2c(=O)n1Cc1cc(C(=O)NC2CC2)n(C)n1

Output:
[0, 0, 0, 27, 0]

====

Test system: FLT4
Conditions: concentration: 1 μM, replicates: in singlicate; n = 1
ENDPOINT_LABEL: %Inh (%)
One number for each entry, in %.

Examples with their reported %Inh follow.
COC(=O)c1c(-c2ccccc2)c2cc(Br)ccc2c(=O)n1Cc1ccc(NC(=O)CCC(=O)O)cc1    9
COc1cccc(-n2cnc3c(N)ncnc32)c1    0
CCS(=O)c1ccc(-c2coc3ccc(-c4nnc(C)o4)cc23)cc1 (stereo not drawn)    0

Could you tell me %Inh for each of these compounds? They are listed below.
1. Nc1nc(N)c2nc(-c3ccccc3)[nH]c2n1
2. Nc1ncnc2c1ncn2-c1cccc2ccccc12
3. CCC(=O)c1c(-c2ccccc2)c2cc(Cl)ccc2c(=O)n1Cc1cc(C(=O)NC2CC2)n(C)n1
4. O=C(Nc1n[nH]c2cc(-c3ccccc3F)ccc12)C1CC1
5. CC(C)(C)c1ccc(C(=O)Nc2cn3cc(-c4ccccc4)ccc3n2)cc1

Output:
[22, 10, 1, 0, 0]

Please fill in: %Inh reported for COc1cc2ncn(-c3cc(OCc4ccncc4Br)c(C(N)=O)s3)c2cc1OC = 68

====

Provide the reported %Inh of each item.
Tested on: FGFR4
Conditions: concentration: 1 μM, replicates: in singlicate; n = 1
One number for each entry, in %.

CN(C)c1cc(-c2ccc3c(N)n[nH]c3c2)nc(N)n1 [GSK2219329]    0
CN1C(=O)C(Nc2ccccc2)=C(c2ccccc2)C1=O [SB-300079]    0
COc1cccc(C2=C(Nc3cccc(C(=O)O)c3)C(=O)NC2=O)c1 [SB-390770]    14
Cc1nnc(-c2ccc3ncn(-c4ccc(S(C)=O)cc4)c3c2)o1 (stereo not shown)    12
O=C(Nc1n[nH]c2nc(-c3ccccc3)c(Cl)cc12)C1CC1 [SB-734909]    0

Batch: %Inh for all items listed.
1. O=C(Nc1ccc2c(c1)OCO2)NC1CCN(c2ccnc(NCc3ccc(F)cc3)n2)CC1 [GSK1379859]
2. Cc1nn2c(=O)cc(N3CCOCC3)nc2n1Cc1cccc(Cl)c1Cl [GSK2342769]

Output:
0
5

Look up %Inh for the entries below, preserving their order.
1. FC(F)(F)c1ccc(-c2ncn(CCCN3CCOCC3)c2-c2ccncc2)cc1 [SB-217780]
2. COc1cc2nccc(Nc3cccc(Oc4ccccc4)c3)c2cc1OC.Cl [GW284543]

Output:
1. 1
2. 8

Field: %Inh. Fill in for each record below.
1. CCC(=O)c1c(-c2ccccc2)c2cc(Cl)ccc2c(=O)n1Cc1cc(C(=O)NC2CC2)n(C)n1
2. COc1cc2nccc(Nc3ccc(OCc4ccc(NC(C)=O)cc4)cc3)c2cc1OC.Cl [GW440135]
3. Nc1n[nH]c2nnc(-c3ccccc3)c(-c3ccccc3)c12 [GW554060]
4. CCn1c(-c2nonc2N)nc2ccccc21 [SB-693162/GW549034]
5. O=C(NCc1cccs1)c1cc(C(=O)c2c(Cl)cccc2Cl)c[nH]1 [GW823670]
6. Nc1n[nH]c2ncc(-c3ccccc3)cc12 [SB-517081]
7. COc1cccc(-n2cnc3c(N)ncnc32)c1 [SKF-97416]
8. COc1ccc(-c2cc3c(C)nc(N)nc3n([C@H]3CC[C@H](OCCO)CC3)c2=O)cn1

Output:
[0, 0, 1, 0, 0, 18, 0, 0]

Go through the items and report each one's %Inh.
1. OCCCNc1nccc(-c2c(-c3cccc(C(F)(F)F)c3)nn3cc(C(F)(F)F)ccc23)n1 [GW630813]
2. CCCC(=O)Nc1n[nH]c2ncc(-c3cccc4ccccc34)cc12 [SB-642057]

Output:
0
19

====

Please respond with reported %Inh for every item in the list.
System: PYK2
Construct: gene PTK2B
Details: concentration: 1 μM, replicates: in singlicate; n = 1
One number for each entry, in %.

Here is how some molecules turned out for %Inh.
O=C(Nc1n[nH]c2nc(-c3ccccc3)c(Cl)cc12)C1CC1    0
CCn1c(-c2nonc2N)nc2ccccc21    0
Fc1cccc(CSc2nnc(-c3ccc4c(c3)CCO4)o2)c1    8
O=C(Nc1n[nH]c2nc(-c3ccccc3)c(Br)cc12)C1CC1    0
CCC(=O)c1c(-c2ccccc2)c2cc(Cl)ccc2c(=O)n1Cc1ccc(C(=O)O)cc1    0
CCC(=O)c1c(-c2ccccc2)c2cc(Cl)ccc2c(=O)n1Cc1cc(C(=O)NC2CC2)n(C)n1    0

Please state, for each entry, its recorded %Inh.
1. Cn1c(=O)c(F)c(Nc2ccc(I)cc2F)c2c(=O)n(OC[C@H](O)CO)cnc21
2. Nc1nc(N)c2nc(-c3ccccc3)[nH]c2n1
3. Nc1ncnc2c1ncn2-c1ccc(Cl)cc1
4. Cl.NS(=O)(=O)c1cccc(Nc2cc(-c3ccc(F)cc3)n[nH]2)c1

Output:
1. 17
2. 0
3. 21
4. 0

====

Would you mind telling me the reported %Inh of each entry?
System: FGR
Conditions: concentration: 1 μM, replicates: in singlicate; n = 1
Give bare numbers, in %.

These recorded examples may help you get a feel for the data.
Cc1c(Cn2c(C)nn3c(=O)cc(N4CCO[C@H](C)C4)nc23)cccc1C(F)(F)F [GSK2373690]    0
COc1cc2ncn(-c3cc(OCc4ccncc4Br)c(C(N)=O)s3)c2cc1OC [GW854278]    20
Cc1cccc(-c2cc(-c3c[nH]nc3-c3ccccn3)ccn2)c1 [GW679395]    36

// for each compound below, give its %Inh
1. COc1ccc(Nc2nccc(N3CCC(NS(=O)(=O)c4ccc(NC(C)=O)cc4)C3)n2)cc1 (stereo not drawn) [GSK1379729]
2. O=C(NCCNc1ccnc(Nc2ccc(F)cc2)n1)Nc1ccc2c(c1)OCO2 [GSK1379882]
3. CC(C)(C)c1ccc(C(=O)Nc2cn3cc(-c4ccccc4)ccc3n2)cc1
4. Nc1nc(-c2ccccc2F)c(-c2ccnc3ccccc23)s1 [GW560459]

Output:
[26, 0, 0, 7]

Look up %Inh for the entries below, preserving their order.
1. Nc1nc(N)c2nc(-c3ccccc3)[nH]c2n1 [SKF-12778]
2. CCS(=O)c1ccc(-c2coc3ccc(-c4nnc(C)o4)cc23)cc1 (stereo not drawn)

Output:
1: 30; 2: 0
